- Test Method Notes: Cytotoxicity against MDCK cells after 2 days by MTT assay
- Assay type: cell-based, Canis lupus familiaris
- Assay Conditions: dog
Endpoint Name: CC50 at 48 h (µM)
Answers are plain numbers, in µM.

Chemical Smiles	CC50 at 48 h [µM]
O=C(NCCCc1ccc(-c2cccs2)s1)c1cc(F)cc(C(F)(F)F)c1	46.7
NCCCCc1ccc(-c2ccc(-c3ccc(CCCCN)s3)s2)s1	13

Read the next record carefully.
So what's the measured CC50 at 48 h for this one? `O=C(NCCCc1cccs1)c1cc(F)cc(C(F)(F)F)c1`
40.2

---

- Test Method Notes: Cytotoxicity against MDCK cells after 2 days by MTT assay
- Type: cell-based, Canis lupus familiaris
- Assay Conditions: dog
Endpoint Name: log10 of CC50 at 48 h (log10 of the value in µM)
For clarity, the numbers are log10 values of CC50 at 48 h expressed in µM.

Use these answered entries as a reference point.
Compound	log10 of CC50 at 48 h
NCCCc1ccc(-c2ccc(-c3cccs3)s2)s1	1.28
O=C(NCCCCc1cccs1)c1cc(F)cc(C(F)(F)F)c1	1.64
NCCCCc1ccc(-c2ccc(-c3cccs3)s2)s1	1.12
O=C(NCCCCc1ccc(-c2cccs2)s1)c1cc(F)cc(C(F)(F)F)c1	1.44
BrCCCc1ccc(-c2ccc(-c3cccs3)s2)s1	1.55

Your task in this section: give log10 of CC50 at 48 h for each listed record.
1. O=C(NCC(c1cccs1)N1CCCC1)c1cc(F)cc(C(F)(F)F)c1 (centres undefined)
2. BrCCCCc1ccc(-c2ccc(-c3cccs3)s2)s1
3. NCCCCc1ccc(-c2ccc(CCCCN)s2)s1
4. O=C(NCCN1CCCCC1)c1cc(F)cc(C(F)(F)F)c1

1. 2.38
2. 1.38
3. 1.42
4. 3.14

---

- Test Method Notes: Cytotoxicity against MDCK cells after 2 days by MTT assay
- Format: cell-based, Canis lupus familiaris
- Assay Conditions: dog
Endpoint Name: CC50 at 48 h

Use these answered entries as a reference point.
Chemical Smiles	CC50 at 48 h
[N-]=[N+]=NCCCc1ccc(-c2ccc(-c3cccs3)s2)s1	> 200 µM
BrCCCCc1ccc(-c2ccc(-c3ccc(CCCCBr)s3)s2)s1	> 200 µM

So what's the measured CC50 at 48 h for this one? `[N-]=[N+]=NCCCc1ccc(-c2ccc(-c3ccc(-c4cccs4)s3)s2)s1`
> 100 µM

Each recorded value in this set is attributed to ChEMBL document CHEMBL4014274.
